system-name: Dipeptidyl peptidase IV (DPP-IV) (Homo sapiens (Human))
protocol-description: DPP-IV activity inhibitory assay in vitro
Type: biochemical
condition: substrate Gly-Pro-7-amido-4-methylcoumarin, fluorescence 355/460 nm
value-kind: pIC50
To interpret pIC50, take it as minus log10 of a concentration measured in moles per litre.

CC#CCn1c(N2CCC[C@@H](N)C2)nc2c1c(=O)n(Cc1nc3ccccc3s1)c(=O)n2C = 10.00

Kindly review the next molecule as well.
# value lookup — system Dipeptidyl peptidase IV (DPP-IV) (Homo sapiens (Human)), readout pIC50, item CC#CCn1c(N2CCC[C@@H](N)C2)nc2c1c(=O)n(Cc1nc3cc(Cl)ccc3s1)c(=O)n2C
9.70

---

system-name: Dipeptidyl peptidase IV (DPP-IV) (Homo sapiens (Human), UniProt P27487)
Sequence (P27487 whole entry): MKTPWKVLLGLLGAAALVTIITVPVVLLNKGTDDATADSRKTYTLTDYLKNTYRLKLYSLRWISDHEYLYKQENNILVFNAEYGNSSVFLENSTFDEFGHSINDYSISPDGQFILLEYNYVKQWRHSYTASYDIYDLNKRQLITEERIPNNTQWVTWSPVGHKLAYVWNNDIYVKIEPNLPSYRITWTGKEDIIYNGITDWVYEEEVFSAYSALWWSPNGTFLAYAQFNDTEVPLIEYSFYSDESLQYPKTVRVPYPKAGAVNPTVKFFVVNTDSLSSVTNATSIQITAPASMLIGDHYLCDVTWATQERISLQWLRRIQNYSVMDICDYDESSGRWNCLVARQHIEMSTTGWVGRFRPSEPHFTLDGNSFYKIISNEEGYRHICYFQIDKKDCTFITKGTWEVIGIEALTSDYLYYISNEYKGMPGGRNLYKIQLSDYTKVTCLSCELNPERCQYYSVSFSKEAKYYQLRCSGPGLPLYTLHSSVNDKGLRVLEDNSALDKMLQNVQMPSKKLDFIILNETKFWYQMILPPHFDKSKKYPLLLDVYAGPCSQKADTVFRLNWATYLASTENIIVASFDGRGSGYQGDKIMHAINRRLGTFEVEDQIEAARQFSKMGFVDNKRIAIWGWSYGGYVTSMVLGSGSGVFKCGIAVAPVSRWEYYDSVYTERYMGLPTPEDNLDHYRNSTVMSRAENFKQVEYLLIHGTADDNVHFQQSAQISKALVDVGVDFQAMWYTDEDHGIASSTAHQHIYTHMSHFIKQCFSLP
protocol-description: DPP-IV activity inhibitory assay in vitro
Format: biochemical
condition: substrate Gly-Pro-7-amido-4-methylcoumarin, fluorescence 355/460 nm; hydrochloride
Structures can show the parent of a compound that is named as a salt.
value-kind: pIC50
To interpret pIC50, take it as minus log10 of a concentration measured in moles per litre.

I would be grateful if you could share the reported pIC50 for CC#CCn1c(N2CCC[C@@H](N)C2)nc2c1c(=O)n(Cc1nc3ccccc3s1)c(=O)n2C [Ex. 5, hydrochloride] .
9.82

---

Test system: normal KM mice
protocol-description: Impact on glucose tolerance in normal mice
Format: in vivo
condition: normal KM mice, fasted, before administration (baseline); group dosed 3 mg/kg i.g; x ± SD
# maps each entry to its Fasting blood glucose
// return numeric value only (unit: mmol/L, not printed)

CC#CCn1c(N2CCC[C@@H](N)C2)nc2c1c(=O)n(Cc1nc3cc(F)ccc3s1)c(=O)n2C [Ex. 1] = 7.27
CC#CCn1c(N2CCC[C@@H](N)C2)nc2c1c(=O)n(Cc1nc(C)c3ccccc3n1)c(=O)n2C [Linagliptin, reference compound] = 7.13
CC#CCn1c(N2CCC[C@@H](N)C2)nc2c1c(=O)n(Cc1nc3cc(F)ccc3s1)c(=O)n2C.Cl [Ex. 4] = 7.25
CC#CCn1c(N2CCC[C@@H](N)C2)nc2c1c(=O)n(Cc1nc3ccccc3s1)c(=O)n2C [Ex. 2] = 7.43

Kindly review the next compound as well.
I would be grateful if you could share the reported Fasting blood glucose for CC#CCn1c(N2CCC[C@@H](N)C2)nc2c1c(=O)n(Cc1nc3cc(Cl)ccc3s1)c(=O)n2C [Ex. 3] .
7.19

---

Test system: normal KM mice
protocol-description: Impact on glucose tolerance in normal mice
Type: in vivo
condition: normal KM mice, 3 mg/kg i.g, glucose 8 g/kg i.g 30 min after drug; x ± SD
Procedure: KM mice, 6 weeks old, weighing 18˜22 g, half male and half female, 60 mice, provided by Chengdu Dashuo Biological Technology Co., Ltd., Production license: SCXK (Chuan) 2008-24. […] 2.2 Grouping: fasting blood glucose values of the fasted mice were measured, and the mice were randomly grouped according to Table 1, with no significant difference between the groups; […]
value-kind: blood glucose at 60 min after glucose loaded (mmol/L)
// return numeric value only (unit: mmol/L, not printed)

CC#CCn1c(N2CCC[C@@H](N)C2)nc2c1c(=O)n(Cc1nc3cc(F)ccc3s1)c(=O)n2C.Cl = 12.75
CC#CCn1c(N2CCC[C@@H](N)C2)nc2c1c(=O)n(Cc1nc(C)c3ccccc3n1)c(=O)n2C [Linagliptin, reference compound] = 14.98
CC#CCn1c(N2CCC[C@@H](N)C2)nc2c1c(=O)n(Cc1nc3cc(Cl)ccc3s1)c(=O)n2C = 13.49
CC#CCn1c(N2CCC[C@@H](N)C2)nc2c1c(=O)n(Cc1nc3cc(F)ccc3s1)c(=O)n2C = 12.61

I would be grateful if you could share the reported blood glucose at 60 min after glucose loaded for CC#CCn1c(N2CCC[C@@H](N)C2)nc2c1c(=O)n(Cc1nc3ccccc3s1)c(=O)n2C .
12.78

---

Tested on: Type II spontaneous diabetic KKAy obese mice
protocol-description: Impact on blood glucose in spontaneous diabetic mice
Type: in vivo
condition: 3 mg/kg i.g, glucose 8 g/kg i.g 30 min after drug, x ± SD
value-kind: blood glucose at 60 min after glucose loaded

Use the examples below as a reference point.
CC#CCn1c(N2CCC[C@@H](N)C2)nc2c1c(=O)n(Cc1nc3cc(Cl)ccc3s1)c(=O)n2C = 11.28 ± 1.67^▴▴★ mmol/L
CC#CCn1c(N2CCC[C@@H](N)C2)nc2c1c(=O)n(Cc1nc3cc(F)ccc3s1)c(=O)n2C.Cl = 11.45 ± 1.60^▴▴★ mmol/L

# value lookup — system Type II spontaneous diabetic KKAy obese mice, readout blood glucose at 60 min after glucose loaded, item CC#CCn1c(N2CCC[C@@H](N)C2)nc2c1c(=O)n(Cc1nc3ccccc3s1)c(=O)n2C
11.41 ± 1.58^▴▴★ mmol/L

# value lookup — system Type II spontaneous diabetic KKAy obese mice, readout blood glucose at 60 min after glucose loaded, item CC#CCn1c(N2CCC[C@@H](N)C2)nc2c1c(=O)n(Cc1nc(C)c3ccccc3n1)c(=O)n2C [Linagliptin, reference compound]
13.10 ± 1.38 mmol/L

# value lookup — system Type II spontaneous diabetic KKAy obese mice, readout blood glucose at 60 min after glucose loaded, item CC#CCn1c(N2CCC[C@@H](N)C2)nc2c1c(=O)n(Cc1nc3cc(F)ccc3s1)c(=O)n2C
11.10 ± 2.45^▴▴★ mmol/L

---

Tested on: Type II spontaneous diabetic KKAy obese mice
protocol-description: Impact on blood glucose in spontaneous diabetic mice
Type: in vivo
condition: fasted, before administration (baseline), group dosed 3 mg/kg i.g, x ± SD
# maps each entry to its Fasting blood glucose
// return numeric value only (unit: mmol/L, not printed)

Use the examples below as a reference point.
CC#CCn1c(N2CCC[C@@H](N)C2)nc2c1c(=O)n(Cc1nc3ccccc3s1)c(=O)n2C = 9.07
CC#CCn1c(N2CCC[C@@H](N)C2)nc2c1c(=O)n(Cc1nc3cc(F)ccc3s1)c(=O)n2C = 9.29
CC#CCn1c(N2CCC[C@@H](N)C2)nc2c1c(=O)n(Cc1nc(C)c3ccccc3n1)c(=O)n2C [Linagliptin, reference compound] = 9.09

I would be grateful if you could share the reported Fasting blood glucose for CC#CCn1c(N2CCC[C@@H](N)C2)nc2c1c(=O)n(Cc1nc3cc(Cl)ccc3s1)c(=O)n2C .
9.15

I would be grateful if you could share the reported Fasting blood glucose for CC#CCn1c(N2CCC[C@@H](N)C2)nc2c1c(=O)n(Cc1nc3cc(F)ccc3s1)c(=O)n2C.Cl .
9.17
